- testedTarget: PI3K alpha (Homo sapiens)
- Construct: p85(iSH2) fusion partner (see partner chain) (N); His tag (C); Tn5 (Trichoplusia ni) or TiniPro insect cells
- Sequence (P42336 with tags, fused parts or gaps limits assumed): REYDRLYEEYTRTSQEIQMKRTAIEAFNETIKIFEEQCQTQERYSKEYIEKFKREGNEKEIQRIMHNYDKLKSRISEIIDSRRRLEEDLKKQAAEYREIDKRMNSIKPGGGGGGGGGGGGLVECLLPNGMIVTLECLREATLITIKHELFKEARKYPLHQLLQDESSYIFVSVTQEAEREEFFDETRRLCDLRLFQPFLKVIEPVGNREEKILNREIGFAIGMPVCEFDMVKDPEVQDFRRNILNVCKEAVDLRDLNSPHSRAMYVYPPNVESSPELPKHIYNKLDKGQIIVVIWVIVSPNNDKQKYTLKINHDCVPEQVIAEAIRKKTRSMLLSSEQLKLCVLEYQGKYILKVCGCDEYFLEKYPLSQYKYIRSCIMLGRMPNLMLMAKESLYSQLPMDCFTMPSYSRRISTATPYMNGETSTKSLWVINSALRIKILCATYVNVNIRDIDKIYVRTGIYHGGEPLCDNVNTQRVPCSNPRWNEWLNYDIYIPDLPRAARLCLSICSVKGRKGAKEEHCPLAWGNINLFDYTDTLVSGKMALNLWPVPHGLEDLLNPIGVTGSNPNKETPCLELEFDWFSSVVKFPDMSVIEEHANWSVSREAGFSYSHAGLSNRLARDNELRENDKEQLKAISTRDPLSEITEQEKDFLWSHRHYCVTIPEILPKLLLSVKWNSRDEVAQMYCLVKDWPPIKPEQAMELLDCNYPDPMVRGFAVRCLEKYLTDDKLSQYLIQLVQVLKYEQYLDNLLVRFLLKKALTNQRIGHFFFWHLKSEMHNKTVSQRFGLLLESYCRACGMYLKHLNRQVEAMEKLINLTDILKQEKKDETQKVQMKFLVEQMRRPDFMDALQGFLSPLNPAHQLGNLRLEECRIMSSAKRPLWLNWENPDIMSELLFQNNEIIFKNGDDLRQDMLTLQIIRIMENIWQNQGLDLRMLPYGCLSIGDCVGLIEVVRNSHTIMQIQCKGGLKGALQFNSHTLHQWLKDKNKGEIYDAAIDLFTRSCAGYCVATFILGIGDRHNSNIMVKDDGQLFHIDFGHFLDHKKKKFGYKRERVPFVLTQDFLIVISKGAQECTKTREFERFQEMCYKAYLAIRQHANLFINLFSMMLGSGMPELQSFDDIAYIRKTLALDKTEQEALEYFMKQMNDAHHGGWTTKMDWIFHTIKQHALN
- assayExplanation: PI3K alpha kinase assay (Kinase-Glo luminescence)
- Experimental: In a more preferred assay, the kinase reaction is performed in a final volume of 10 μL per well of a low volume non binding CORNING, 384 well black plate (Cat. No. #3676). The final concentrations of ATP and phosphatidyl inositol (PI) in the assay are 1 μM and 10 μg/mL respectively. […] IC50 is determined by a four parameter curve fitting routine that comes along with “excel fit”. […] Alternatively, IC50 values are calculated using idbsXLfit model 204, which is a 4 parameter logistic model.
pIC50: −log10 of the molar value.
recordedEndpoint: pIC50

Enter measured pIC50, system PI3K alpha (Homo sapiens), for the molecule shown: `Cc1nn(C)cc1-n1c(=O)n(C)c2cnc3ccc(-c4cncc(OC(F)F)c4)cc3c21`
8.52

Please indicate recorded pIC50 of `COc1ncc(-c2ccc3ncc4c(c3c2)n(-c2cn(C)nc2C)c(=O)n4C)cc1C#N` measured with PI3K alpha (Homo sapiens).
6.86

# lookup: PI3K alpha (Homo sapiens) pIC50, key = `COCc1ccc(-c2ccc3ncc4c(c3c2)n(-c2cn(C(C)C)nc2C)c(=O)n4C)cn1`
6.96

[a] Cc1cc(-n2c(=O)n(C)c3cnc4ccc(-c5cncc(N6CCOCC6)c5)cc4c32)n(C)n1
[b] COc1ncc(-c2ccc3ncc4c(c3c2)n(-c2cn(C)nc2Cl)c(=O)n4C)cc1CO
Kindly identify the item with the lower pIC50 figure among these two: a and b Reply with the label of the item you choose.
a
(a: 6.70, b: 8.05)

[a] COCc1cc(-c2ccc3ncc4c(c3c2)n(-c2cn(C)nc2C)c(=O)n4C)cnc1OC
[b] Cc1nn(C)cc1-n1c(=O)n(C)c2cnc3ccc(-c4cncc(N(C)C(C)C)c4)cc3c21
[c] Cc1nn(C)cc1-n1c(=O)n(C)c2cnc3ccc(-c4cncc(S(C)(=O)=O)c4)cc3c21
Reorder: pIC50, max to min. Thanks in advance for listing the labels in the requested order.
c, a, b

[1] [2H]C([2H])([2H])Nc1ncc(-c2ccc3ncc4c(c3c2)n(-c2c(C)nn(C)c2C)c(=O)n4C)cc1C(F)(F)F
[2] CCNc1cc(-c2ccc3ncc4c(c3c2)n(-c2cn(CC)nc2C)c(=O)n4C)cnc1C
[3] CCOc1ccc(-c2ccc3ncc4c(c3c2)n(-c2c(C)nn(C)c2C)c(=O)n4C)cn1
Could you please sort these 3 entries by pIC50 from high to low? # format: label list in the order the request specifies
2, 1, 3
(2: 8.05, 1: 7.72, 3: 6.84)
